Test: qHTS RealTime-Glo MT Cell Viability Assay in HepG2 cells - 16 hour (AID 1224885); also: nearly all actives have a fitted effect of over 50% in size
Conditions: RealTime-Glo luminescence; series mostly up to 76.8 µM
Inconclusive results are not listed. Activity calls are given as the source filed them. Calls follow the shape of the dose curve; as a rule, active = well fitted cell-killing curve with a large enough effect in the repeat runs; inconclusive = weak or mixed curves; inactive = flat fitted curve, though single readings scatter.
reported-metric: activity change, negative = cytotoxic

// below: answered molecules
molecule: COC(=O)NN
activity change, negative = cytotoxic: inactive
//
molecule: CCc1ccc(O)c(OC)c1
activity change, negative = cytotoxic: inactive
//
molecule: CCCCCCCCCCCC
activity change, negative = cytotoxic: inactive
//
molecule: CCCCCSCCCCC
activity change, negative = cytotoxic: inactive
//
molecule: CCN(Cc1ccncc1)C(=O)C(CO)c1ccccc1 (stereo not given)
activity change, negative = cytotoxic: inactive

Param item = `CC(C)(c1ccc(O)cc1)c1ccc(O)cc1` ; retrieve measured activity change, negative = cytotoxic. inactive

Param item = FC(F)OC(Cl)C(F)(F)F (stereo not given) ; retrieve measured activity change, negative = cytotoxic. inactive

Param item = `CC(C)(O)C#CC(C)(C)O` ; retrieve measured activity change, negative = cytotoxic. inactive

Param item = `Cc1ccc(Cl)cc1Cl` ; retrieve measured activity change, negative = cytotoxic. inactive

Param item = `CCOC(=O)C(=O)OCC` ; retrieve measured activity change, negative = cytotoxic. inactive

Param item = `CC1(C)CO[C@@H](CC(=O)O)CN1` ; retrieve measured activity change, negative = cytotoxic. inactive

Param item = `CC(C)(C)c1nnc(NS(=O)(=O)c2ccccc2)s1` ; retrieve measured activity change, negative = cytotoxic. inactive

###

Target: Thyrotropin-releasing hormone receptor (Homo sapiens) (UniProt P34981)
Sequence (P34981 whole entry, looked up): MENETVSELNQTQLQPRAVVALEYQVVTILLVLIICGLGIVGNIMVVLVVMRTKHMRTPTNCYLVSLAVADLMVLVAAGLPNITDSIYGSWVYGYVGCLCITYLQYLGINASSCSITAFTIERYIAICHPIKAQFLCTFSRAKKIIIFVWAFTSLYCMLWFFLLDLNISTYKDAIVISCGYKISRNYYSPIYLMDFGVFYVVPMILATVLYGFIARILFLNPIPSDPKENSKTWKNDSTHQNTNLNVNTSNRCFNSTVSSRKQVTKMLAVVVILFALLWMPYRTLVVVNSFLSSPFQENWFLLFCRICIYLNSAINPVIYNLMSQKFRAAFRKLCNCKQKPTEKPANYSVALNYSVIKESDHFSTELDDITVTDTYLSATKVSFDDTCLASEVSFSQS
Test: qHTS assay to identify small molecule antagonists of the thyrotropin-releasing hormone receptor (TRHR) signaling pathway (AID 1346877)
Conditions: TRHR-HEK293, TRH-induced calcium fluorescence, antagonist mode; series mostly up to 51.3 µM
Calls of active or inactive are those of the source. Calls follow the shape of the dose curve; as a rule, active = well fitted inhibition curve with a large enough effect in the repeat runs (not every such curve was filed as active); inconclusive = weak or mixed curves; inactive = flat fitted curve, though single readings scatter.
reported-metric: activity, negative = inhibition

// below: answered compounds
compound: Cc1ccc(=O)n(-c2ccccc2)c1
measured-on: Thyrotropin-releasing hormone receptor (Homo sapiens) (UniProt P34981)
reported-metric: activity, negative = inhibition
result: inactive
//
compound: C[C@H](NC(CCc1ccccc1)C(=O)O)C(=O)N1CCC[C@H]1C(=O)O (some centres not stated)
measured-on: Thyrotropin-releasing hormone receptor (Homo sapiens) (UniProt P34981)
reported-metric: activity, negative = inhibition
result: inactive
//
compound: CCN(Cc1ccncc1)C(=O)C(CO)c1ccccc1 (configuration not stated)
measured-on: Thyrotropin-releasing hormone receptor (Homo sapiens) (UniProt P34981)
reported-metric: activity, negative = inhibition
result: inactive
//
compound: FC(F)OC(Cl)C(F)(F)F (configuration not stated)
measured-on: Thyrotropin-releasing hormone receptor (Homo sapiens) (UniProt P34981)
reported-metric: activity, negative = inhibition
result: inactive
//
compound: O=C(O)c1ccccc1OP(=O)(O)O
measured-on: Thyrotropin-releasing hormone receptor (Homo sapiens) (UniProt P34981)
reported-metric: activity, negative = inhibition
result: inactive
//
compound: Cc1cnc(NS(=O)(=O)c2ccc(N)cc2)nc1
measured-on: Thyrotropin-releasing hormone receptor (Homo sapiens) (UniProt P34981)
reported-metric: activity, negative = inhibition
result: inactive

Now take the following compound into account.
Param item = COc1ccc(CCN(C)CCCC(C#N)(c2cc(OC)c(OC)c(OC)c2)C(C)C)cc1OC (configuration not stated) ; retrieve measured activity, negative = inhibition. inactive

Value source: PubChem BioAssay (Tox21)
